Ref: patent US11111245B2

# targetSystem: CDK9/T1 (Homo sapiens, UniProt P50750)
# Sequence (P50750 whole entry): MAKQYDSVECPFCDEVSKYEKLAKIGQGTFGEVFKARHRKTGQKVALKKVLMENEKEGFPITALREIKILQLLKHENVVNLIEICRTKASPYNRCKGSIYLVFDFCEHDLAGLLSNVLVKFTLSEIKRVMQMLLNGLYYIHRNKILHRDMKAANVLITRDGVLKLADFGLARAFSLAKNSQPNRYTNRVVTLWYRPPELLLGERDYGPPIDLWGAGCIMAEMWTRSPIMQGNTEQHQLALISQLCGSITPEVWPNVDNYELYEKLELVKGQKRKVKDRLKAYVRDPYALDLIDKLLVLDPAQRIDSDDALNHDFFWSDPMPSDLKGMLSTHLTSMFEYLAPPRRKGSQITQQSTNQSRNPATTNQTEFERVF
# Sequence (O60563 whole entry partner): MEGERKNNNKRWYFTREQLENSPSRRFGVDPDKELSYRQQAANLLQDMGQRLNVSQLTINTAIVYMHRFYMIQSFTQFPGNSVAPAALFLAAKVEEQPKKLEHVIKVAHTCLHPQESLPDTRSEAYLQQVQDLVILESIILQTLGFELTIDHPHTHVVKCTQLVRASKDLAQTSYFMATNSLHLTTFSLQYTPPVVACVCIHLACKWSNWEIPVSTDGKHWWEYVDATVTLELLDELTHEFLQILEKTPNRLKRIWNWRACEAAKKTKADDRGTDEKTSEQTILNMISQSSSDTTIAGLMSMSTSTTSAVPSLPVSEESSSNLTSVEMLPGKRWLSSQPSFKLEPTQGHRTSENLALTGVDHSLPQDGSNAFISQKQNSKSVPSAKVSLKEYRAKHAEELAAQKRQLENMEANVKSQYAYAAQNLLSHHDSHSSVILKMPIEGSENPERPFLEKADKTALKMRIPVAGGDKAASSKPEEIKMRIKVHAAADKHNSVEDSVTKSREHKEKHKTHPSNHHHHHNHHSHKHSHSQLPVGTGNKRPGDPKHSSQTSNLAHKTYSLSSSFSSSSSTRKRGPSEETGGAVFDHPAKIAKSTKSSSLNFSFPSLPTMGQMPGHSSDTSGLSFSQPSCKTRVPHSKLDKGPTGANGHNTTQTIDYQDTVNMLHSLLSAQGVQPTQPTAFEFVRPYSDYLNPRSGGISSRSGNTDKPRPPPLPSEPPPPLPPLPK
# assaySummary: ADP Glo Kinase assay CDK9/T1
# Format: biochemical
# testContext: CDK9T1; read-out: CDK inhibition, Ki (μM) CDK9T1
# Protocol: Eurofins Pharma Discovery or Reaction Biology Corporation Kinase Profiler services were used to measure inhibition of CDKs and other kinases by radiometric assay. Inhibition of CDK4/D1, CDK6/D3 and CDK9/T1 were also determined in-house using ADP Glo Kinase assays (Promega Corporation, Madison, USA). […] Luminescence was measured using an EnVision Multilabel plate reader (PerkinElmer, Buckinghamshire, UK). […]
quantity: Ki (µM)

mol	quantity	unitOfMeasurement	readoutValue
COc1cnc(N[C@H]2CC[C@H](N)CC2)nc1-c1cnc2ccc(-c3ccccc3)cn12	Ki	µM	0.027

A: Cc1cnc(N[C@H]2CC[C@H](N)CC2)nc1-c1cnc2ccc(Oc3cccnc3)cn12
B: CNC(=O)N[C@H]1CC[C@H](Nc2ncc(C)c(-c3cnc4ccc(Nc5cncnc5)cn34)n2)CC1
C: COc1cnc(N[C@H]2CC[C@H](N)CC2)nc1-c1cnc2ccccn12
Rank the 3 compounds: largest Ki first, smallest last. A ranking is expressed here by listing the labels in the requested order.
C, A, B
(C: 0.291 µM, A: 0.02 µM, B: 0.005 µM)

---

# targetSystem: CDK4/D1 (Homo sapiens)
# Sequence (P11802 whole entry): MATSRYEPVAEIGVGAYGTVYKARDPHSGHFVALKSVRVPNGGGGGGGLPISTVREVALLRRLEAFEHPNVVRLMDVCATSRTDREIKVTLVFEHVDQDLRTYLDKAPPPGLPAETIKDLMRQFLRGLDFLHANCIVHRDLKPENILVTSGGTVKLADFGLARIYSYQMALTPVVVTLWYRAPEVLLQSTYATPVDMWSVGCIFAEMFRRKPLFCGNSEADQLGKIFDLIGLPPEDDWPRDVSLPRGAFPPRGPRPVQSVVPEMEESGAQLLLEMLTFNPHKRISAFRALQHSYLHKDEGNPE
# Sequence (P24385 whole entry partner): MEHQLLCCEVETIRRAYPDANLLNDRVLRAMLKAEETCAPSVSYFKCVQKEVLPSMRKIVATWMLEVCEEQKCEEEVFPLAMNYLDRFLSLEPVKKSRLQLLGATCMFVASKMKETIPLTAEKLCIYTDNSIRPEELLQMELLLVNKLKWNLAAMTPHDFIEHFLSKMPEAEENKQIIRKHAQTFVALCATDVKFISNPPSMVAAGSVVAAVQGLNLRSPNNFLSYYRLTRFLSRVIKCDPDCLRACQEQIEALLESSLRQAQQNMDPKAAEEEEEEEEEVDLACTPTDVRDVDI
# assaySummary: ADP Glo Kinase assay CDK4/D1
# Format: biochemical
# testContext: CDK4D1; compound at 10 μM; read-out: residual activity (%) at 10 μM CDK4D1
quantity: remaining activity at 10 µM (%)

These recorded examples may help you get a feel for the data.
compound	remaining activity at 10 µM (%)
Cc1cnc(N[C@H]2CC[C@@H](N)CC2)nc1-c1cnc2ccc(Nc3cccnc3)cn12	37
N[C@H]1CC[C@H](Nc2ncc(F)c(-c3cnc4ccc(-c5ncccc5F)cn34)n2)CC1	4

a: Cc1cnc(N[C@H]2CC[C@@H](N)CC2)nc1-c1cnc2ccc(-c3ccccc3)cn12
b: Cc1cnc(N[C@H]2CC[C@H](N)CC2)nc1-c1cnc2ccc(Oc3cncnc3)cn12
Consider entries a and b . Which has the numerically lower remaining activity at 10 µM? Field: selected label. Fill in the label of the entry you choose.
a

a: Cc1cnc(N[C@H]2CC[C@H](N3CCC3)CC2)nc1-c1cnc2ccc(Nc3cncnc3)cn12
b: Cc1cnc(N[C@]23C[C@@]4(C)C[C@](C)(C[C@](O)(C4)C2)C3)nc1-c1cnc2ccc(Nc3cncnc3)cn12
Parameter check: reported remaining activity at 10 µM is higher for which label, a or b ? Field: selected label. Fill in the label of the entry you choose.
b
(b: 73%, a: 15%)

1: CS(=O)(=O)N[C@H]1CC[C@H](Nc2ncc(Cl)c(-c3cnc4ccc(Br)cn34)n2)CC1
2: Cc1cnc(N[C@H]2CC[C@H](N3CCCC3)CC2)nc1-c1cnc2ccc(Nc3cncnc3)cn12
Consider entries 1 and 2 . Which has the numerically lower remaining activity at 10 µM? Field: selected label. Fill in the label of the entry you choose.
1
(1: 1%, 2: 8%)

P: O[C@H]1CC[C@H](Nc2ncc(Cl)c(-c3cnc4ccc(-c5cccnc5)cn34)n2)CC1
Q: Cc1cnc(N[C@H]2CC[C@H](C)CC2)nc1-c1cnc2ccc(-c3ccccc3)cn12
R: N[C@H]1CC[C@H](Nc2ncc(Cl)c(-c3cnc4ccc(-c5ccncc5)cn34)n2)CC1
S: N[C@H]1CC[C@H](Nc2ncc(F)c(-c3cnc4ccc(NC(=O)c5ccc(F)cc5)cn34)n2)CC1
T: Cc1cnc(N[C@H]2CC[C@H](N)CC2)nc1-c1cnc2ccccn12
// smallest remaining activity at 10 µM at index 0, largest at the end A ranking is expressed here by listing the labels in the requested order.
S, R, T, P, Q

---

# targetSystem: CDK9/T1 (Homo sapiens, UniProt P50750)
# assaySummary: ADP Glo Kinase assay CDK9/T1
# Format: biochemical
# testContext: CDK9T1; read-out: CDK inhibition, Ki (μM) CDK9T1
quantity: Ki (µM)

P: Cc1cnc(N[C@H]2CC[C@@H](N)CC2)nc1-c1cnc2ccc(Nc3cncnc3)cn12 [Compound 93]
Q: Cc1cnc(N[C@H]2CC[C@H](N(CC(N)=O)CC(N)=O)CC2)nc1-c1cnc2ccc(Nc3cncnc3)cn12 [Compound 154]
Parameter check: reported Ki is higher for which label, P or Q ? Field: selected label. Fill in the label of the entry you choose.
P
(P: 0.071 µM, Q: 0.022 µM)

A: N[C@H]1CC[C@H](Nc2ncc(Cl)c(-c3cnc4ccc(-c5cncnc5)cn34)n2)CC1 [Compound 38]
B: N[C@H]1CC[C@H](Nc2ncc(Cl)c(-c3cnc4ccc(-c5cccnc5)cn34)n2)CC1 [Compound 35]
Consider entries A and B . Which has the numerically lower Ki? Field: selected label. Fill in the label of the entry you choose.
B
(B: 0.007 µM, A: 0.065 µM)

---

# targetSystem: CDK9/T1 (Homo sapiens, UniProt P50750)
# assaySummary: ADP Glo Kinase assay CDK9/T1
# Format: biochemical
# testContext: CDK9T1; read-out: CDK inhibition, Ki (μM) CDK9T1
quantity: Ki (µM)

These recorded examples may help you get a feel for the data.
compound	quantity	readoutValue
Cc1cnc(N[C@H]2CC[C@H](N)CC2)nc1-c1cnc2ccc(Nc3ccncn3)cn12	Ki	0.106
Cc1cnc(N[C@H]2CC[C@@H](N)CC2)nc1-c1cnc2ccc(Nc3cccnc3)cn12	Ki	0.089

1: Cc1cnc(N[C@H]2CC[C@H](N)CC2)nc1-c1cnc2ccc(NCc3ccc(F)cc3)cn12
2: Cc1cnc(NC2CCCC(N)C2)nc1-c1cnc2ccc(-c3ccccc3)cn12 (stereo not shown)
Consider entries 1 and 2 . Which has the numerically lower Ki? Field: selected label. Fill in the label of the entry you choose.
1
(1: 0.094 µM, 2: 0.388 µM)

---

# targetSystem: CDK4/D1 (Homo sapiens)
# assaySummary: ADP Glo Kinase assay CDK4/D1
# Format: biochemical
# testContext: CDK4D1; compound at 10 μM; read-out: residual activity (%) at 10 μM CDK4D1
quantity: remaining activity at 10 µM (%)

compound	readoutValue
COc1ccc(Nc2ccc3ncc(-c4nc(N[C@H]5CC[C@H](N)CC5)ncc4C)n3c2)cn1 [Compound 127]	32
N[C@H]1CC[C@H](Nc2ncc(Cl)c(-c3cnc4c(Br)cc(C(F)(F)F)cn34)n2)CC1 [Compound 14]	3
Cc1cnc(N[C@H]2CC[C@H](N3CCC3)CC2)nc1-c1cnc2ccc(-c3ccccc3)cn12 [Compound 135]	28
CS(=O)(=O)N[C@H]1CC[C@H](Nc2ncc(Cl)c(-c3cnc4c(Br)cc(C(F)(F)F)cn34)n2)CC1 [Compound 18]	9
N[C@H]1CC[C@H](Nc2ncc(Cl)c(-c3cnc4c(-c5ccccc5)cc(C(F)(F)F)cn34)n2)CC1 [Compound 85]	75
Cc1cnc(N[C@H]2CC[C@H](O)CC2)nc1-c1cnc2ccccn12 [Compound 107]	37
Fc1cnc(N[C@H]2CC[C@H](N3CCC3)CC2)nc1-c1cnc2ccc(-c3ccccc3)cn12 [Compound 138]	6
Cc1cnc(N[C@H]2CC[C@H](NCC(N)=O)CC2)nc1-c1cnc2ccc(Nc3cncnc3)cn12 [Compound 153]	0

1: N[C@H]1CC[C@H](Nc2ncc(-c3ccccc3)c(-c3cnc4ccc(-c5ccccc5)cn34)n2)CC1 [Compound 80]
2: Fc1cnc(NC2CCN(CC3CCCC3)CC2)nc1-c1cnc2ccc(-c3ccccc3)cn12 [Compound 146]
Parameter check: reported remaining activity at 10 µM is higher for which label, 1 or 2 ? Field: selected label. Fill in the label of the entry you choose.
1

P: Cc1cnc(NC2CCCC(N)C2)nc1-c1cnc2ccc(Nc3cncnc3)cn12 (stereo not shown) [Compound 96]
Q: Fc1cnc(NC2CCNCC2)nc1-c1cnc2ccc(-c3ccccc3)cn12 [Compound 143]
Parameter check: reported remaining activity at 10 µM is higher for which label, P or Q ? Field: selected label. Fill in the label of the entry you choose.
P

P: Cc1cnc(N[C@H]2CC[C@H](O)CC2)nc1-c1cnc2ccc(Nc3cccnc3)cn12 [Compound 106]
Q: N[C@H]1CC[C@H](Nc2ncc(F)c(-c3cnc4ccc(-c5cccnc5)cn34)n2)CC1 [Compound 26]
Consider entries P and Q . Which has the numerically lower remaining activity at 10 µM? Field: selected label. Fill in the label of the entry you choose.
Q
(Q: 9%, P: 43%)

a: Cc1cnc(NC2CCC(F)(F)CC2)nc1-c1cnc2ccccn12 [Compound 156]
b: Cc1cnc(N[C@H]2CC[C@H](NC3CCN(C)CC3)CC2)nc1-c1cnc2ccc(-c3ccccc3)cn12 [Compound 90]
Consider entries a and b . Which has the numerically lower remaining activity at 10 µM? Field: selected label. Fill in the label of the entry you choose.
b
(b: 24%, a: 51%)

---

# targetSystem: CDKs and other kinases (Homo sapiens, UniProt P06493)
# Construct: other: CDK1B; residual activity (%) at 10 μM CDK1B; compound at 10 μM
# Sequence (P06493 whole entry): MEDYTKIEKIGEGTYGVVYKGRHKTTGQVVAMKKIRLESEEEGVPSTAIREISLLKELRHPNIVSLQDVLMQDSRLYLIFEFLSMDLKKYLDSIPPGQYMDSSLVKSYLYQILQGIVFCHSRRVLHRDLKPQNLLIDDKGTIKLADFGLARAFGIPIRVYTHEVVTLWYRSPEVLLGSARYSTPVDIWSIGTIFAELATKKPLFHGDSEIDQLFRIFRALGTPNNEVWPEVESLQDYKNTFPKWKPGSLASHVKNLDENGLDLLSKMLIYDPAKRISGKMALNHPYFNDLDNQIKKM
# assaySummary: Radiometric kinase assay (Eurofins Pharma Discovery or Reaction Biology Corporation Kinase Profiler)
# Assay type: biochemical
# testContext: CDK1B; compound at 10 μM; read-out: residual activity (%) at 10 μM CDK1B
quantity: remaining activity at 10 µM (%)

compound	remaining activity at 10 µM (%)
Cc1cnc(NC2CCCC(N)C2)nc1-c1cnc2ccc(Nc3cccnc3)cn12 (stereo not shown)	59

a: Cc1cnc(NC2CCC(F)(F)CC2)nc1-c1cnc2ccccn12
b: Fc1cnc(N[C@H]2CC[C@H](NC3CCOCC3)CC2)nc1-c1cnc2ccccn12
c: COc1ccc(Nc2ccc3ncc(-c4nc(N[C@H]5CC[C@H](N)CC5)ncc4C)n3c2)cn1
Rank the 3 compounds: largest remaining activity at 10 µM first, smallest last. A ranking is expressed here by listing the labels in the requested order.
a, c, b
